Tested on: LOC_OS02G07810-cb001;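 further: purified Escherichia coli-expressed rice kinase domain construct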
Assay: thermal shift delta Tm vs DMSO control; higher = stronger stabilization (binding)
Settings: 12.5 µM; protein concentration 2 µM

{"columns": ["mol.smiles", "thermal shift delta Tm / °C"],
 "data": [
  ["Cn1nccc1Nc1nccc(-c2ccn([C@H](CO)c3ccc(Cl)c(F)c3)c(=O)c2)n1", -0.02],
  ["COc1cc2ncnc(Nc3cccc(Cl)c3)c2cc1OC", 1.34],
  ["CCOc1ccn(-c2ccc(F)cc2)c(=O)c1C(=O)Nc1ccc(Oc2ccnc(N)c2Cl)c(F)c1", 1.56],
  ["CC(C)(CO)n1cc(C(=O)c2cncc(NC(=O)Cc3ccc(Cl)cn3)c2)c2cnc(N)nc21", -0.84]
]}
